Data provenance: ChEMBL document CHEMBL6071187

# TARGET_OF_ASSAY: Protein cereblon/F-box-like/WD repeat-containing protein TBL1X (Homo sapiens) (UniProt Q96SW2+O60907)
# Sequence (O60907 whole entry, looked up): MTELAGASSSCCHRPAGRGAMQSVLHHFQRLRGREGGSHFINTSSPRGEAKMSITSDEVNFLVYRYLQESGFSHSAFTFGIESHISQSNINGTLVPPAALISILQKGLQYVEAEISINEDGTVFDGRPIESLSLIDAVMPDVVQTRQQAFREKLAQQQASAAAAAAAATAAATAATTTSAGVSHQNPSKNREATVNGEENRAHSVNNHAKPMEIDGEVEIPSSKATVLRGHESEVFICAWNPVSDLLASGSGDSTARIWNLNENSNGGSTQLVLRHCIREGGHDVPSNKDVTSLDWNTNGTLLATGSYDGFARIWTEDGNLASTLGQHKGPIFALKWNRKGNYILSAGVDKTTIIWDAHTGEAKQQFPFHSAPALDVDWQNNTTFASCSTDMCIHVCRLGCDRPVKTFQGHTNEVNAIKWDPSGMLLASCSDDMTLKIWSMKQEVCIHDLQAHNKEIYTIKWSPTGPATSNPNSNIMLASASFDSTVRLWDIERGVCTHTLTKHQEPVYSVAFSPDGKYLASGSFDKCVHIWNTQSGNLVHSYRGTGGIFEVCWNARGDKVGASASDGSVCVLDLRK
# Sequence (Q96SW2 whole entry, looked up): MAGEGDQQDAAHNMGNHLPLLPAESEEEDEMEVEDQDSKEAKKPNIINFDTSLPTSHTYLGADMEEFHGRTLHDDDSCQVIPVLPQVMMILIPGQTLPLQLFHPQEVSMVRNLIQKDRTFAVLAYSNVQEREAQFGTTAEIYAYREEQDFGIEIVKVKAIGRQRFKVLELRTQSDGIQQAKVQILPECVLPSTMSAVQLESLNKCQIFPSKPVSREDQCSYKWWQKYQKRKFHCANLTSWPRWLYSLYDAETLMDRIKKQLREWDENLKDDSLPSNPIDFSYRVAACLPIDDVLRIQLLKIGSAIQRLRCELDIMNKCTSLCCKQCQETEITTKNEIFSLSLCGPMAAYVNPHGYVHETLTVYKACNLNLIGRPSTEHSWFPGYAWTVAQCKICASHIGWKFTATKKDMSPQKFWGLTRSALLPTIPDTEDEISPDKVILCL
# MEASUREMENT_NOTES: PROTAC activity at CRBN/TBL1X in human Ri-1 cells assessed as […] TBL1X level at 5 uM incubated for 6 hrs by Western blotting analysis (reference value: 1)
# Type: cell-based
MEASUREMENT_LABEL: fold change (FC)

>>> result("CC1CC(C)CN(S(=O)(=O)c2ccc3c(c2)C(=NO)c2cc(S(=O)(=O)N4CC(C)CC(C)C4)ccc2C3=NOCCCNC(=O)CCNc2cccc3c2C(=O)N(C2CCC(=O)NC2=O)C3=O)C1 (stereo not given)")
0.54
>>> result("CC1CC(C)CN(S(=O)(=O)c2ccc3c(c2)C(=NO)c2cc(S(=O)(=O)N4CC(C)CC(C)C4)ccc2C3=NOCCCNC(=O)CCOCCOCCOCCNc2cccc3c2C(=O)N(C2CCC(=O)NC2=O)C3=O)C1 (stereo not given)")
0.58
>>> result("CC1CC(C)CN(S(=O)(=O)c2ccc3c(c2)/C(=N\\O)c2cc(S(=O)(=O)N4CCN(C(=O)CCOCCOCCOCCNc5cccc6c5C(=O)N(C5CCC(=O)NC5=O)C6=O)CC4)ccc2/C3=N\\O)C1 (stereo not given)")
0.97
>>> result("CC1CC(C)CN(S(=O)(=O)c2ccc3c(c2)C(=NO)c2cc(S(=O)(=O)N4CC(C)CC(C)C4)ccc2C3=NOCCCNC(=O)CCCCNc2cccc3c2C(=O)N(C2CCC(=O)NC2=O)C3=O)C1 (stereo not given)")
1.46
>>> result("CC1CC(C)CN(S(=O)(=O)c2ccc3c(c2)/C(=N/O)c2cc(S(=O)(=O)N4CCN(C(=O)CCOCCNc5cccc6c5C(=O)N(C5CCC(=O)NC5=O)C6=O)CC4)ccc2/C3=N\\O)C1 (stereo not given)")
0.79
>>> result("CC1CC(C)CN(S(=O)(=O)c2ccc3c(c2)C(=NO)c2cc(S(=O)(=O)N4CC(C)CC(C)C4)ccc2C3=NOCCCNC(=O)CCCCCCCCCCNc2cccc3c2C(=O)N(C2CCC(=O)NC2=O)C3=O)C1 (stereo not given)")
0.43
>>> result("CC1CC(C)CN(S(=O)(=O)c2ccc3c(c2)/C(=N/O)c2cc(S(=O)(=O)N4CCN(C(=O)CCCCCCCCCCNc5cccc6c5C(=O)N(C5CCC(=O)NC5=O)C6=O)CC4)ccc2/C3=N\\O)C1 (stereo not given)")
1.08
>>> result("CC1CC(C)CN(S(=O)(=O)c2ccc3c(c2)/C(=N/O)c2cc(S(=O)(=O)N4CCN(C(=O)CCCCNc5cccc6c5C(=O)N(C5CCC(=O)NC5=O)C6=O)CC4)ccc2/C3=N\\O)C1 (stereo not given)")
0.6
>>> result("CC1CC(C)CN(S(=O)(=O)c2ccc3c(c2)/C(=N\\O)c2cc(S(=O)(=O)N4CCN(C(=O)CCOCCOCCNc5cccc6c5C(=O)N(C5CCC(=O)NC5=O)C6=O)CC4)ccc2/C3=N\\O)C1 (stereo not given)")
0.97
>>> result("CC1CC(C)CN(S(=O)(=O)c2ccc3c(c2)/C(=N/O)c2cc(S(=O)(=O)N4CCN(C(=O)CCNc5cccc6c5C(=O)N(C5CCC(=O)NC5=O)C6=O)CC4)ccc2/C3=N\\O)C1 (stereo not given)")
1.34
